# target_desc: D(1A) dopamine receptor (Homo sapiens, UniProt P21728); further: assay procedure not described here
# Sequence (P21728 whole entry): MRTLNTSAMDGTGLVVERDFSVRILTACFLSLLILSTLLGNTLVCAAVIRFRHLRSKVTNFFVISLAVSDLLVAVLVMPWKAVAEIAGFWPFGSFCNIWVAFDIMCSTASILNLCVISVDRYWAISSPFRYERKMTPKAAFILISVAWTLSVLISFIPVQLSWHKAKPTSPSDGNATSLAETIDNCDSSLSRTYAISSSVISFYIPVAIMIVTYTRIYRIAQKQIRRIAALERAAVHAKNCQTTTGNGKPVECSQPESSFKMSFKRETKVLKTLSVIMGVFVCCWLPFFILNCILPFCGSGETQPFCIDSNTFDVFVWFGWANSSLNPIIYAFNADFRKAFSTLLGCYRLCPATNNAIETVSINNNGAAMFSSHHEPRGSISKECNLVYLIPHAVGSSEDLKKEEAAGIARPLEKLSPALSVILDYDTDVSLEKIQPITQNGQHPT
# Format: functional, cell-based
measurement_kind: AC50

Problem: With D(1A) dopamine receptor (Homo sapiens, UniProt P21728) as the test system, provide measured AC50 for this compound: C[C@@H]1C[C@H]2[C@@H]3C[C@H](F)C4=CC(=O)C=C[C@]4(C)[C@@]3(F)[C@@H](O)C[C@]2(C)[C@@]1(OC(=O)c1ccco1)C(=O)SCF [FLUTICASONE FUROATE]
Solution: > 10 µM

Problem: With D(1A) dopamine receptor (Homo sapiens, UniProt P21728) as the test system, provide measured AC50 for this compound: CCOC(=O)C(C)(C)Oc1ccc(Cl)cc1 [CLOFIBRATE]
Solution: > 10 µM

Problem: With D(1A) dopamine receptor (Homo sapiens, UniProt P21728) as the test system, provide measured AC50 for this compound: CC1=C(C(=O)OC(C)C)C(c2cccc([N+](=O)[O-])c2)C(C(=O)OC2CN(C(c3ccccc3)c3ccccc3)C2)=C(N)N1 (centres undefined) [AZELNIDIPINE]
Solution: > 30 µM

Problem: With D(1A) dopamine receptor (Homo sapiens, UniProt P21728) as the test system, provide measured AC50 for this compound: "CCOc1cc([C@@H](CS(C)(=O)=O)N2C(=O)c3cccc(NC(C)=O)c3C2=O)ccc1OC"
Solution: > 30 µM
